- Test summary: water solubility
- Conditions: room temperature, colloidal solution
Measured metric: solubility (µg/mL)
Write the answer as a number in µg/mL, unit excluded.

query: Look up solubility for this molecule: C[C@@H]1CC[C@@]2(OC1)O[C@H]1C[C@H]3[C@@H]4CC=C5C[C@@H](O[C@@H]6O[C@H](CO)[C@@H](O)[C@H](O)[C@H]6O)CC[C@]5(C)[C@H]4CC[C@]3(C)[C@H]1[C@@H]2C [Diosgenyl Glucoside, diosgenyl β-D-glucoside]
result: 5

----------
- Test summary: water solubility
- Conditions: 25° C.
Measured metric: solubility

query: solubility lookup needed for C[C@@H]1CC[C@@]2(OC1)O[C@H]1C[C@H]3[C@@H]4CC=C5C[C@@H](O[C@@H]6O[C@H](CO)[C@@H](O)[C@H](O)[C@H]6O)CC[C@]5(C)[C@H]4CC[C@]3(C)[C@H]1[C@@H]2C [Diosgenyl Glucoside, diosgenyl β-D-glucoside] , thanks.
result: ~5 µg/mL
